# target_entity: mTOR (Homo sapiens, UniProt P42345)
# procedure_summary: in vitro kinase activity assay at ATP near Km; also anti-Raptor immunoprecipitated mTORC1 kinase assay (HepG2/HUH-7) with GST-S6K1 substrate
# Format: biochemical
measured_attribute: pEC50
As a rule, pEC50 stands for the negative log10 of the concentration, concentration in M.

// field: pEC50; key: `COc1ccc(C=NNC(=O)c2cc3cc(Cl)ccc3[nH]2)c(OC)c1` ; value = 4.39
